Reported pEC50 values are given for each entry in this list.
Target: human FPRL2 (Homo sapiens, UniProt P25089)
Construct: expressed in transfected cells; host or cells: HEK293 (HEK293-hFPRL2-Gα16)
Sequence (P25089 whole entry): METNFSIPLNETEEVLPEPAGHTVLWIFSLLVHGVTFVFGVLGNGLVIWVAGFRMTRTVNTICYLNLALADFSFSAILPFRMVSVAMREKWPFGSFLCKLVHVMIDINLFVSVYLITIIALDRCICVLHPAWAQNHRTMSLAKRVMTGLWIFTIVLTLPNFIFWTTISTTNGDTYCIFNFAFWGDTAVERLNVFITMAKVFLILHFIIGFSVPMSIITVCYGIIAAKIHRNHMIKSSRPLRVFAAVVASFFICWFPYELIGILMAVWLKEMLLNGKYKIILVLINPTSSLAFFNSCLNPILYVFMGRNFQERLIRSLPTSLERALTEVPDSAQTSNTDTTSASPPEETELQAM
Assay: Intracellular calcium measurements (FLIPR), agonistic activity in HEK293-hFPRL2-Gα16 cells
Assay type: cell-based
Details: Fluo-4 calcium FLIPR, normalized to GLY14-Humanin 100 nM
Quick note: pEC50 means taking -log10 of the concentration in moles per liter.

Example cases with answers are listed next.
COMPOUND	REPORTED RESULT
CCN(CC)CCN(CC)C(=O)[C@H]1[C@H](C(=O)Nc2ccc(Br)cc2)[C@@H]2C=C[C@H]1C21CC1 (racemic)	5.81
O=C(NCCCCN1CCCC1)[C@H]1[C@H](C(=O)Nc2ccc(Cl)nc2)[C@@H]2C=C[C@H]1C21CC1	6.67
O=C(NCCCCN1CCCC1)[C@H]1[C@H](C(=O)NCc2cccc(OC(F)F)c2)[C@@H]2C=C[C@H]1C21CC1 (racemic)	6.28
O=C(NCC1CCCO1)C1C(C(=O)Nc2ccc(Br)cc2)C2C=CC1C21CC1 (mixture of isomers)	5.33

Read the next record carefully.
Endpoint output: pEC50 of O=C(NCCCCN1CCCC1)[C@H]1[C@H](C(=O)NCc2cc(C(F)(F)F)ccc2F)[C@@H]2C=C[C@H]1C21CC1 (racemic) . Value?
6.46
